Property: IC50 [nM], inhibition of BT474 cell proliferation (BrdU); scope: individual binders
- tested system: Human HER2 expressed on tumour cells (human, UniProt P04626 23-1255)
- test: cell-based or functional assay
State just the number; it will be interpreted in nM.

Recorded results for 3 binders are shown here.
# binder, test value
records = [
    ("DARPin #40 (designed binder) MRGSHHHHHHGSDLGHKLLEAAVAGQDDEVRILLAAGADVNAKDWYGKTPLHFAAGLGHLEIVEVLLKAGADVNAKDEDGQTPLHLAAAYGHLEIVEVLLKAGADVNAQDNDGFTPADLAADSGHEDIAEVLQKLGGGGSGGGGSRSDLGKKLLEAARAGQDDEVRILMANGADVNAKDEYGLTPLYLATAHGHLEIVEVLLKNGADVNAVDAIGFTPLHLAAFIGHLEIAEVLLKHGADVNAQDKFGKTAFDISIGNGNEDLAEILQKLN", 2.76),
    ("DARPin #67 (designed binder) MRGSHHHHHHGSDLGAKLLSDLGVKLLWAAARGQDDEVRILLAAGADVNAKDFQGITPLHIAAQSGHLEIVEVLLKAGADVNAKDVTGDTPLHLAAQHGHLVIVEVLLKAGADVNAQDERGWTPADLAADWGHEDIAEVLQKAAGGGGSDLGKKLLEAARAGQDDEVRILMANGADVNAKDEYGLTPLYLATAHGHLEIVEVLLKNGADVNAVDAIGFTPLHLAAFIGHLEIAEVLLKHGADVNAQDKFGKTAFDISIGNGNEDLAEILQKAA", 4.87),
    ("DARPin #33 (designed binder) MRGSHHHHHHGSDLGIKLLFAASRGQDDEVRILLAAGADVNAKDFEGITPLHAAARSGHLEIVEVLLKAGADVNAKDVEGWTPLHYAASYGHLEIVEVLLKAGADVNAQDNHGATPADLAAQWGHEDIAEVLQKLGGGGSGGGGSRSDLGAKLLVAATSGQDDEVRILLAAGADVNAKDRIGFTPLHRAAFVGHLEIVEVLLKAGADVNAQDDFGHTPADLAASLGHEDIAEVLQKLN", 4.47),
]

Now let's try a different one.
[ask] Note IC50 [nM], inhibition of BT474 cell proliferation (BrdU) for the binder shown: DARPin #41 (designed binder) MRGSHHHHHHGSDLGAKLLSDLGVKLLWAAARGQDDEVRILLAAGADVNAKDFQGITPLHIAAQSGHLEIVEVLLKAGADVNAKDVTGDTPLHLAAQHGHLVIVEVLLKAGADVNAQDERGWTPADLAADWGHEDIAEVLQKLGGGGSGGGGSRSDLGKKLLEAARAGQDDEVRILMANGADVNAKDEYGLTPLYLATAHGHLEIVEVLLKNGADVNAVDAIGFTPLHLAAFIGHLEIAEVLLKHGADVNAQDKFGKTAFDISIGNGNEDLAEILQKLN
[reply] 4.01

Attribution: patent US20150299265A1
